Where do these numbers come from? They come from patent US20210380703A1.

target: T1, human ACVR2A (human, UniProt P27037 20-135, limits assumed); experiment: ELISA; further: test concentration or dose not given here
T1 construct: coated antigen of the initial ELISA; also called activin receptor, type II A
T1 sequence (P27037 20-135 limits assumed): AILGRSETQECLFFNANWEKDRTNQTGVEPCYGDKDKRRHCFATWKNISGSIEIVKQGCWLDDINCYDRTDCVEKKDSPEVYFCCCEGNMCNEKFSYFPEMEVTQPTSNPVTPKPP
OBSERVABLE: optical density (OD)
Respond numerically; units are OD and should not be typed.

Please look up its optical density: 374_F08 (antibody, V domains shown, Group III) VH: EVQLLESGGGLVQPGGSLRLSCAASGFTFDSYSMNWVRQAPGKGLEWVSGINYNGGYKSYADSVKGRFTISRDNSKNTLYLQMNSLRAEDTAVYYCARGANWHDTALDYWGQGTLVTVSS VL: DIQMTQSPSSLSASVGDRVTITCRASQSILTYVNWYQQKPGKAPKLVIYAVTSRASGVPSRFSGSGSGTDFTLTISSLQPEDFATYYCQQSYDTPLTFGGGTKVEIK 3.67

What do you get for 371_H08 (antibody, V domains shown, Group III) VH: EVQLLESGGGLVQPGGSLRLSCAASGFTFSSYGMNWVRQAPGKGLEWVASINYNGGYKGYADSVKGRFTISRDNSKNTLYLQMNSLRAEDTAVYYCARGANWHDTHLDYWGQGTLVTVSS VL: DIQMTQSPSSLSASVGDRVTITCRASQSIISYVNWYQQKPGKAPKLVIYAVTSRASGVPSRFSGSGSGTDFTLTISSLQPEDFATYYCQQSYDTPLTFGGGTKVEIK ? 1.66

What do you get for 367_A12 (antibody, V domains shown, Group III) VH: EVQLLESGGGLVQPGGSLRLSCAASGFTFSSYGMNWVRQAPGKGLEWVSGINYNSGYTSYADSVKGRFTISRDNSKNTLYLQMNSLRAEDTAVYYCARGANWHDTHLDYWGQGTLVTVSS VL: DIQMTQSPSSLSASVGDRVTITCRASQSILSYLNWYQQKPGKAPKLLIYAATSLHSGVPSRFSGSGSGTDFTLTISSLQPEDFATYYCQQSYNNPLTFGGGTKVEIK ? 2.44
